- TEST NAME: CCClick: formaldehyde (10 mM) bridges the two exocyclic methylene carbons of a Fischer base dimer (Knoevenagel dehydration cyclization, two C-C bonds), then hemin (1 mM)/air oxidative dehydrogenation to cyclic trimethine cyanine
- STUDY CONDITIONS: the molecule shown is the open-chain precursor, 13-membered ring, DMF, 37.0 °C, 12.0 h
Give ring closure, conversion by HPLC for every item shown.
Just the number please, in %, no unit attached.

Ask: Using the record for `C=C1N(CCCCCCN2C(=C)C(C)(C)c3c2ccc2ccccc32)c2ccc3ccccc3c2C1(C)C` , report its ring closure, conversion by HPLC.
Result: 90

Ask: Using the record for `C=C1N(CCCCCCN2C(=C)C(C)(C)c3c2ccc2ccccc32)c2ccccc2C1(C)C` , report its ring closure, conversion by HPLC.
Result: 48

Ask: Using the record for `C=C1N(CCCCCCN2C(=C)C(C)(C)c3ccccc32)c2ccccc2C1(C)C` , report its ring closure, conversion by HPLC.
Result: 31

Ask: Using the record for `C=C1N(CCCCCCN2C(=C)C(C)(C)c3c2ccc2ccccc32)c2ccc(OCCCCCC[P+](c3ccccc3)(c3ccccc3)c3ccccc3)cc2C1(C)C.[I-]` , report its ring closure, conversion by HPLC.
Result: 90

Ask: Using the record for `C=C1N(CCCCCCN2C(=C)C(C)(C)c3cc(OC)ccc32)c2ccc(OC)cc2C1(C)C` , report its ring closure, conversion by HPLC.
Result: 85
